experiment.description: in vitro
condition: human, hela cells, % viability
# maps each entry to its viability at 28.5 h, 10 µM
reported.endpoint: viability at 28.5 h, 10 µM (%)

# molecule, reading.unit, reported.value
measured = [
    ("NS(=O)(=O)c1ccc(CCNC2CC(=O)N(Cc3cccs3)C2=O)cc1 (stereo not drawn) [CBK266579]", "%", 91.1),
    ("COc1cc(CN2C[C@@H](c3ccccc3)[C@@H]3NC(=O)CCCC[C@H]32)cc(OC)c1 [CBK285646]", "%", 89.6),
    ("COc1ccc(-n2ncc(CN(C)C)n2)cc1OC [CBK112862]", "%", 101),
    ("CCn1c2ccccc2c2cc(Nc3cc(-c4cccc5ccccc45)ncn3)ccc21 [CBK090834]", "%", 50.6),
    ("CCOC(=O)CN1CCC(Oc2nccnc2OCC2COc3ccccc3O2)CC1 (stereo not drawn) [CBK082989T]", "%", 96.6),
    ("Cc1ccc(N)c(C(=O)CCC(=O)O)c1 [CBK017815C]", "%", 92.1),
    ("O=C(N/N=C/c1c[nH]nc1-c1ccccc1)c1cccnc1 [CBK262461]", "%", 101),
    ("CSc1nc(C(=O)NC2CCCN(c3ncccn3)C2)cs1 (stereo not drawn) [CBK307198]", "%", 98.7),
    ("COc1cnc(-c2ccccc2OC)c(NC(=O)Cc2ccccc2)n1 [CBK145260]", "%", 95.8),
]

###

experiment.description: in vitro
condition: human, hela cells, % viability

# compound, viability at 28.5 h, 10 µM
measured = [
    ("S=C1NCN(Cc2ccccc2)CN1c1ccccc1", "91.3%"),
    ("O=c1c(-c2cc(O)[nH]n2)c(O)c2ccccc2n1Cc1ccccc1", "97.2%"),
    ("N#CCCCN1CCC(Oc2cncc(OCc3ccc(Cl)c(Cl)c3)n2)C1 (stereo not shown)", "96.1%"),
    ("CC(NC(=O)N(CCCN)Cc1ccccc1C(F)(F)F)c1ccccc1 (stereo not shown) [CBK034668C]", "99.9%"),
    ("Cc1nn(C)c(N2CCNCC2)c1NC(=O)c1ccoc1 [CBK050302T]", "99.7%"),
    ("CCOc1ccc(Cl)cc1CN(C)C(=O)NCC(C)CN(C)C (stereo not shown)", "121%"),
    ("CCCCCCC1N=NC(c2ccc(F)cc2)=CN1O (stereo not shown)", "94.8%"),
    ("CCC12CN3CCN(CC(C3)/C1=N\\O)C2", "85.9%"),
    ("C=Cn1ncc(CN2CCC3(O)CCCCC3C2)c1C (stereo not shown)", "94.5%"),
    ("CCc1cc(Br)ccc1S(=O)(=O)NCc1cccc(F)c1", "89.1%"),
]

###

experiment.description: in vitro
condition: human, hela cells, % viability

# compound, viability at 28.5 h, 10 µM / %
measured = [
    ("O=[N+]([O-])c1cnc(NS(=O)(=O)c2ccc(-c3ccon3)s2)s1", 95.2),
    ("Cc1ccc(-c2nnc(CNC(=O)c3cccc(-c4ccc(F)cc4)c3)o2)s1", 109),
    ("COc1ccccc1-c1nnc(SCc2cccc(C(=O)O)c2)[nH]1", 85.3),
    ("Nc1nnc(Sc2nc3ccccc3nc2N2CCCC2)s1", 88.4),
    ("O=C(O)c1cccc(-c2cncc(NCCCN3CCOCC3)n2)c1", 104),
    ("COc1ccc(C2Nc3ccccc3C(=O)N2c2ccc(C)cc2)cc1Cn1nc(C)c([N+](=O)[O-])c1C (centres unmarked)", 106),
    ("COCCNc1cc(-c2ccc(NC(C)=O)cc2)ncn1", 97.8),
    ("Cc1cc(-c2cc(C(=O)NN3CCN(C)CC3)c3cc(Cl)ccc3n2)c(C)s1", 102),
    ("COc1ccc(C(NC(=O)C2CCN(S(C)(=O)=O)CC2)c2ccccc2C)cn1 (centres unmarked)", 104),
    ("CC(C)(C)C(=O)Nc1ccc(F)c(C(=O)N2CCc3[nH]ncc3C2)c1", 104),
    ("O=C(Nc1ccc(C(=O)O)c(O)c1)c1ccc(Br)o1", 87),
    ("O=C(NCCCN1CCOCC1)c1ccc(/C=N/O)nc1", 107),
    ("CC(NC(=O)COc1ccc(Cl)cc1Cl)C(=O)O (centres unmarked)", 91.2),
    ("CC(C)Nc1nc2ccccc2nc1OCCCN(C)C", 108),
    ("O=C(C[C@@H]1O[C@H](CNS(=O)(=O)c2ccc(Cl)cc2)[C@@H](O)[C@H]1O)N1CCCC1", 94.2),
    ("Cc1cc2c(s1)c1cnn(CC(=O)NC(C)(C)C)c(=O)c1n2C", 86.6),
    ("O=C(O)C1Nc2c(C(=O)N3CCOCC3)cccc2C2C=CCC12 (centres unmarked)", 104),
    ("C=CCn1c(C)c(CN2CCc3nc(C)[nH]c(=O)c3C2)c2ccccc21", 97.3),
    ("CCC1(C)CC(C(N)=S)CCO1 (centres unmarked)", 97),
    ("Cc1scc(C(=O)NN2CCN(C)CC2)c1-c1ccccc1", 93),
]
